Ref: PubChem BioAssay (EPA / NIEHS)

# PROCEDURE SUMMARY: CCTE_Deisenroth_5AR_NBTE_donor: CCTE's 5alpha-reductase NanoBRET Target Engagement Assay […], Deisenroth Lab (AID 2284319)
# EXPERIMENTAL CONTEXT: actives raise or lower the signal
Activity calls are given as the source filed them. Rule for the calls: active = hit-call score of the fitted dose curve at least 0.9, where 1 is the maximum; inactive = score below 0.9.
Classes used: active, inactive

- COMPOUND: "CCN(CC)c1ccc(C(=C2C=CC(=[N+](CC)CC)C=C2)c2ccc(S(=O)(=O)O)cc2S(=O)(=O)[O-])cc1"
  DISCRETE LABEL: "inactive"
- COMPOUND: "CCCCCCCCCCCCCC(=O)O"
  DISCRETE LABEL: "inactive"
- COMPOUND: "CC(C)=CCC[C@](C)(O)[C@@H]1CC=C(C)CC1"
  DISCRETE LABEL: "inactive"
- COMPOUND: "CCN(CC)c1ccc2c(-c3ccccc3C(=O)O)c3ccc(=[N+](CC)CC)cc-3oc2c1"
  DISCRETE LABEL: "inactive"
- COMPOUND: "CCCCCCCCCCCCCOS(=O)(=O)O"
  DISCRETE LABEL: "active"
- COMPOUND: "CC1CC(OC(=O)c2ccccc2O)CC(C)(C)C1 (stereo unspecified)"
  DISCRETE LABEL: "inactive"
